All values here come from PubChem BioAssay (NCI).

# Test system: NCI-H460 lung
# assay.name: NCI-60 one-dose screen, 48 h (100 = growth as untreated, 0 = no growth, -100 = all killed)
# condition.summary: 10 µM
This is part of a sample that, as a whole, favours compounds with a hit. Of some 83,000 tested, about 20% had one in any assay. Active and inactive are the calls of the source. Rule for the calls: active = growth percent below 10; inactive = the rest.
measure.name: growth

>>> df
                                   compound  measure_name   measured_value
0     CCC1(C)OC(=O)NC1=O (stereo not given)        growth  111% (inactive)
1  N#CN1CC[C@H](C(=O)Nc2ncc(-c3ccncc3)s2)C1        growth   3.58% (active)
2  Cc1ccc(/C=C2\CN(Cc3cn(CCNc4ccnc5cc(Cl)ccc45)nn3)C/C(=C\c3ccc(C)cc3)C2=O)cc1        growth    -51% (active)
3  COc1ccc(-c2[nH]ncc2/C=C/c2cc(C(F)(F)F)[nH]c(=O)n2)cc1        growth  110% (inactive)
4  COC(=O)c1c(C)nc(Nc2nc3ccccc3s2)nc1-c1ccc(Cl)cc1Cl        growth  106% (inactive)

---

growth overview
# System: TK-10 renal
# assay.name: NCI-60 one-dose screen, 48 h (100 = growth as untreated, 0 = no growth, -100 = all killed)
# condition.summary: 10 µM
About 83,000 compounds went through this panel and 20% of them were active in at least one assay; those are over-represented in the sample as a whole.
measure.name: growth (%)

In [3]: df
Out[3]:
                                    molecule  units_text  measured_value
 0  CCn1nc(-c2ccc(C(=O)OC)cc2)nc2c(=O)n(C)c(=O)nc1-2           %            85.7
 1    COc1ccc(/C(CS(=O)(=O)c2ccccc2)=N\O)cc1           %            92.5
 2      O=C(O)c1ccc(CNc2ccc(C(=O)CCl)cc2)cc1           %             104
 3  COc1cc(N=C2C(=O)N(Cc3ccccc3)c3ccccc32)cc(OC)c1OC           %             112
 4        O=C1/C(=C/c2ccc(O)cc2O)N=C2SCCCN12           %            88.4
 5  O=C(NCc1cn(Cc2cccc(Oc3ccccc3)c2)nn1)c1cccnc1Nc1ccccc1           %            85.2
 6  Cc1cc(=O)oc2cc(OCc3cn(CC(O)CO)nn3)ccc12 (stereo not drawn)           %             105
 7       Cc1ccc(-n2nnc3c(sc4ccccc43)c2=O)cc1           %            56.7
 8                 C/C=C\COc1cc(C)c(Cl)cc1Cl           %             125
 9  COc1cc(C2c3cc4c(cc3C(O)C(CO)C2CO)OCO4)cc(OC)c1OC (stereo not drawn)           %            46.7
10             CCn1nc(-c2ccccn2)c2cccnc2c1=S           %            89.9
11  O=C(COc1ccc(Cl)cc1Cl)Oc1coc(CSc2nc3ccccc3s2)cc1=O           %             107
12  CN(C)c1ccc2c(c1)OC(N)=C(C#N)C2c1ccc2c(c1)CCCN2C (stereo not drawn)           %            70.3
13  NC(=O)C12C(=O)NC(=O)C1(C(=O)O)C21CCCC1 (stereo not drawn)           %             111
14  COc1ccc(-c2nc(-c3nc4ccc(OC)cc4[nH]3)c3ccccn23)cc1           %            79.3
15  CC(C)C[C@H](NC(=O)Cn1ccc(Nc2ccccc2)cc1=O)B(O)O           %            13.5
16  CCN(CC)CCOC(=O)c1ccc(NC(=O)Nc2cccc(Cl)c2)cc1           %            96.1
17  O=C(Nc1ccc(CN2CCOCC2)cc1)c1ccc(-c2cc(Cl)ccc2Cl)o1           %            49.4
18  COc1cc(Cl)cc(-c2nn(-c3cccc(NC(=O)Nc4cccc(C(F)(F)F)c4)c3)cc2-c2ccncc2)c1           %            23.4
19  O=C(Cn1ccc(=O)[nH]c1=O)c1ccc([N+](=O)[O-])o1           %            63.3
20  COc1ccc(-c2ccccc2)cc1C(=O)c1ccc(-c2ccccc2)cc1           %            88.3
21  CCCCn1c(=O)[nH]c2c(c1=O)C(c1ccc(Cl)cc1)c1c([nH]c(=O)n(CCCC)c1=O)N2           %            91.3
22                  Cc1ccc(NC(=O)/C=N/O)cc1C           %             122

---

# Test system: CAKI-1 renal
# assay.name: NCI-60 one-dose screen, 48 h (100 = growth as untreated, 0 = no growth, -100 = all killed)
# condition.summary: 10 µM
Compounds without any hit were thinned out: in the full panel of roughly 83,000, 20% have a hit.
growth overview
measure.name: growth (%)

>>> print(df.to_string())
                                    compound  measured_value
 0  FC(F)(F)c1ccc(-c2cnc(Cl)nc2NCc2cc(C(F)(F)F)cc(C(F)(F)F)c2)cc1            1.18
 1  COc1ccc(Nc2ccnc(N3CCN(c4ccnc5cc(Cl)ccc45)CC3)n2)cc1            6.78
 2  COc1ccc(-c2nc(-c3nc4ccc(OC)cc4[nH]3)c3ccccn23)cc1              64
 3  O=C(NNc1nc(N2CCCC2)nc(N2CCCC2)n1)c1ccccc1             116
 4  COc1cccc(-c2nnc(COc3ccc(-c4nc5ccccc5[nH]4)cc3OC)o2)c1            98.7
 5                     O=S(=O)(O)C1(O)CCCCC1              76
 6  COc1cccc2c1O/C(=C\c1ccc([N+](=O)[O-])s1)C2=O            90.9
 7                        Oc1cc(O)c(Br)cc1Br            95.9
 8  CC(=O)n1nc(C(=O)OC(C)(C)C)c2cc(F)c(F)cc21             101
 9                     O=C(O)CCCCSCCCCC(=O)O             100
10          O=[N+]([O-])c1cc2ncccc2c2ncccc12            84.2
11  COc1ccc(/C=C2\SC(=S)N(CCCN3CCOCC3)C2=O)c(OC)c1            94.4
12           COc1ccc(OC)c([N+](=O)[O-])c1C=O            72.2
13  CC1(C)CCc2cc(-c3ccn(S(=O)(=O)c4ccc(Cl)cc4)n3)ccc2O1            64.3
14  CC(CNC(Cc1ccccc1)c1ccccc1)NC(Cc1ccccc1)c1ccccc1 (stereo not drawn)            15.6
15  NC1CCC(Nc2nc(NCc3ccc(-c4ccco4)nc3)c3ncn(C4CCCC4)c3n2)CC1 (stereo not drawn)            17.3
16  COc1cc2c3c(cccc3c1)C(=O)N(CCN1CCCC1)C2=O            14.2
17       Clc1cc(Cl)c(OCCCCCCN2CCNCC2)c(Cl)c1            32.3
18  COc1cc(/C=C/C(=O)c2cc(-c3ccc(C(F)(F)F)cc3)ccc2O)cc(OC)c1OC            47.2
19        O=C1/C(=C/c2cccs2)CCC/C1=C\c1cccs1            87.4
20           CCc1c(C)[nH]c(=O)c(C(N)=O)c1C#N            96.3
21  COc1ccc(/C(=C/c2cc(OC)c(OC)cc2[N+](=O)[O-])C(=O)O)cc1            96.1
22     CCC1(C)OC(=O)NC1=O (stereo not drawn)            97.8

---

# Tested on: SNB-19 CNS
# assay.name: NCI-60 one-dose screen, 48 h
# condition.summary: 10 µM
This is part of a sample that, as a whole, favours compounds with a hit. Of some 83,000 tested, about 20% had one in any assay. The source made the active and inactive calls. Rule for the calls: active = growth percent below 10; inactive = the rest.
Outcome codes: TRUE for active, FALSE for inactive

>>> df
                                    compound  target_entity  label_value
 0  Cc1nc(Nc2nc3ccccc3o2)nc(-c2cccc([N+](=O)[O-])c2)c1C(=O)Nc1ccc(F)c(Cl)c1     SNB-19 CNS        FALSE
 1  CC(C)(C)CC(C)(C)c1ccc(O)c(Cc2ccc(Cl)cc2Cl)c1     SNB-19 CNS         TRUE
 2      O=C1/C(=C/c2ccc(O)cc2)Cc2ccc(Cl)cc21     SNB-19 CNS        FALSE
 3       Clc1cc(Cl)c(OCCCCCCN2CCNCC2)c(Cl)c1     SNB-19 CNS        FALSE
 4    CC(=O)Nc1nc(C)c(C(=O)N/N=C/c2cccn2C)s1     SNB-19 CNS        FALSE
 5  COC(=O)c1cnc2c(c1)Oc1ccc(Cl)cc1-c1cc(C)nn1-2     SNB-19 CNS        FALSE
 6             CCCCOCCOCCOCc1cc2c(cc1Br)OCO2     SNB-19 CNS        FALSE
 7  O=c1oc2cc(OS(=O)(=O)C3CC3)ccc2c2c1CCCCCC2     SNB-19 CNS        FALSE
 8  COc1ccccc1Cn1cc2c(c1-c1ccccc1)CCc1cnoc1-2     SNB-19 CNS        FALSE
 9  CCc1ccc(-c2nnc(COc3ccc(-c4nc5ccc(C)cc5[nH]4)cc3OC)o2)cc1     SNB-19 CNS        FALSE
10       CCN1CCOC1C(C)C (stereo unspecified)     SNB-19 CNS        FALSE
